B1: mRNA-splicing (parent)
chain: GAUCCAGAUCUAACUUGGGGUGGCUUUGUCUUCUUCUUUUGCCAAUUCCACUAAUUGUUUGGG

variants of: B1; experiment: exon inclusion enrichment score (log2 ratio to wild type); higher = more inclusion; FAS exon 6 minigene, HEK293

{"Mutation Key": "G1A", "exon inclusion enrichment score": -3.07}
{"Mutation Key": "G19A", "exon inclusion enrichment score": 0.892}
{"Mutation Key": "G17U", "exon inclusion enrichment score": -0.191}
{"Mutation Key": "C5A", "exon inclusion enrichment score": -0.066}
{"Mutation Key": "U47A", "exon inclusion enrichment score": -0.214}
{"Mutation Key": "U25C", "exon inclusion enrichment score": 0.429}
{"Mutation Key": "U47G", "exon inclusion enrichment score": -1.62}
{"Mutation Key": "A54U", "exon inclusion enrichment score": -0.013}
{"Mutation Key": "A44U", "exon inclusion enrichment score": -1.32}
{"Mutation Key": "G17C", "exon inclusion enrichment score": -0.067}
{"Mutation Key": "C30A", "exon inclusion enrichment score": -0.973}

// data source = the RNAGym collection of RNA variant scans (doi:10.1038/ncomms11558)
